Target: human Tamm-Horsfall protein (human, UniProt P07911 25-587)
Experiment: competitive ELISA; light chains bound in the wells, Tamm-Horsfall protein in solution, cyclized peptide as inhibitor
Source text: Peptides known to react with the Tamm-Horsfall protein in the yeast two-hybrid assay were synthesized, cyclized, and used as inhibitors in a competitive ELISA experiment. The peptides were cyclized by adding cysteine residues to the amino and carboxyl-terminal portions of the peptides and generating an intramolecular disulfide bridge (FIG. 4). Cyclization facilitates formation of the loop structure in solution. […]
Bridges are numbered along the chain shown (N, C = ends). Where no end group is shown, it is not given here.
propertyName: pIC50
pIC50 (log units): -log10 of the concentration in mol/L.

stdin: Tell me pIC50 reported for CLSADSSGSYLYVFC (disulfide 1-15, Built from the words 'cyclized by adding cysteine residues to the amino and carboxyl-terminal portions of the peptides'; also called cyclized peptide 2) [peptide 2 (LSADSSGSYLYVF (SEQ ID NO:2)), cyclized]
stdout: 7.62
